# TARGET DESC: Nuclear receptor subfamily 1 group I member 2 (Homo sapiens)
# Sequence (O75469 whole entry): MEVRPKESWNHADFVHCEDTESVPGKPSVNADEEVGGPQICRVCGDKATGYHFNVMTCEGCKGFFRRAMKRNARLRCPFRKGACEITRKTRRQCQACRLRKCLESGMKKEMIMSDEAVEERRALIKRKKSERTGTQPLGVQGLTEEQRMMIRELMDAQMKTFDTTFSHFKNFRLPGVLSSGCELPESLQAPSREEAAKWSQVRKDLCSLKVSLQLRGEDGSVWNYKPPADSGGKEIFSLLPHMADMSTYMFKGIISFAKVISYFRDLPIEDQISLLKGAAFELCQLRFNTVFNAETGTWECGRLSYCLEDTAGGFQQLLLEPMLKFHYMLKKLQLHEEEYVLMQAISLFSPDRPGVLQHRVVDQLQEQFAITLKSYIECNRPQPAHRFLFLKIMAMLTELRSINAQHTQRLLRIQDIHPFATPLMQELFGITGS
# PROTOCOL: Inverse agonist activity at PXR (unknown origin)
pEC50: −log10 of the molar value.
PROPERTY LABEL: pEC50

Supply pEC50 value. Item: CC(C)(O)C(=O)N[C@@H]1CC[C@@]2(S(=O)(=O)c3ccc(F)cc3)c3ccc(C(F)(C(F)(F)F)C(F)(F)F)cc3CC[C@@H]12
< 5.30

---

# PROTOCOL: Clearance in mouse at 2 mg/kg, iv
# Assay type: ADME, organism-based
# ASSAY SETUP: in vivo
PROPERTY LABEL: clearance
Write your answer as a measured quantity: the number, then the unit.

Supply clearance value. Item: CC(C)(O)C(=O)N[C@@H]1CC[C@@]2(S(=O)(=O)c3ccc(F)cc3)c3ccc(C(F)(C(F)(F)F)C(F)(F)F)cc3CC[C@@H]12
3.7 mL/min/kg
